tested on: morningglory (Ipomea lacunosa or Ipomea hederacea); test: Postemergence herbicidal activity, morningglory; assay type: in vivo; settings: rate of application 0.3 Kg/Ha, rated after 12-17 days
QUANTITY_KIND: Postemergence herbicidal activity (% control) IPOSS

# example entries with known answers
>>> result("CC(Cl)c1cc2c(Cl)cc(F)c(-n3c(=O)cc(C(F)(F)F)n(C)c3=O)c2o1 (centres unmarked)")
"100%"
>>> result("CCOC(=O)c1cc2c(Cl)ccc(-n3c(=O)cc(C(F)(F)F)n(C)c3=O)c2o1")
"90%"
>>> result("Cn1c(C(F)(F)F)cc(=O)n(-c2ccc(Cl)c3cc(CO)oc23)c1=O")
"100%"
>>> result("Cn1c(C(F)(F)F)cc(=O)n(-c2ccc(Cl)c3cc(C=O)oc23)c1=O")
"100%"
>>> result("CCOC(=O)c1cc2c(-n3c(=O)cc(C(F)(F)F)n(C)c3=O)c(F)cc(Cl)c2[nH]1")
"100%"
>>> result("Cn1c(C(F)(F)F)cc(=O)n(-c2ccc(Cl)c3cc(C(N)=O)oc23)c1=O")
"80%"

Please report the recorded Postemergence herbicidal activity (% control) IPOSS for CC(C)C(=O)OC(C)c1cc2c(Cl)cc(F)c(-n3c(=O)cc(C(F)(F)F)n(C)c3=O)c2o1 (centres unmarked) .
100%

Please report the recorded Postemergence herbicidal activity (% control) IPOSS for CNC(=O)c1cc2c(Cl)cc(F)c(-n3c(=O)cc(C(F)(F)F)n(C)c3=O)c2o1 .
100%
